Data credit: ChEMBL document CHEMBL1201862

Tested on: RPMI-8226
PROTOCOL: NCI tumour cell line growth inhibition, 48 h
Activity calls are given as the source filed them. No stated cut-off is given here; in the data, active = GI50 up to about 1.1 µM and inactive = higher.
Listing of recorded GI50 by entry.

A selection of reference data follows.
Request: Which GI50 value is on record for CC(C)CCNC(=O)c1ccc(CNC(=O)/C=C/c2ccc3ccccc3c2)cc1 ?
Response: > 100 µM (inactive)

Request: Which GI50 value is on record for CCNC(=O)N(CC)CN(CC)C(=O)NCC ?
Response: > 100 µM (inactive)

Request: Which GI50 value is on record for COc1ccc(N2C(=O)C3c4[nH]c5ccccc5c4C4CC(C)CC(C)C4C3C2=O)cc1 (centres undefined) ?
Response: > 100 µM (inactive)

Request: Which GI50 value is on record for O=C(O)CNc1ccc(C(=O)O)cc1 ?
Response: > 100 µM (inactive)

Request: Which GI50 value is on record for N#CCCN(CCC#N)c1ccc(/C=C2\N=C(c3ccccc3)N(NC(N)=S)C2=O)cc1 ?
Response: > 100 µM (inactive)

Request: Which GI50 value is on record for COc1ccc2c(c1)[n+]([O-])c(-c1ccc(Cl)c(Cl)c1)c(N)[n+]2[O-] ?
Response: 31.3 µM (inactive)

Request: Which GI50 value is on record for CC(C)=CCC/C(C)=C/Cc1cc(/C=C/c2cc(O)c(CC=C(C)C)c(O)c2)cc(O)c1O ?
Response: 0.506 µM (active)

Request: Which GI50 value is on record for O=C(/N=N/c1ccc(Cl)cc1Cl)NNc1ccc(Cl)cc1Cl ?
Response: 19 µM (inactive)

Further cases:
Request: Which GI50 value is on record for C=C1C(OC2O[C@@H]3O[C@@]4(C)CC[C@H]5[C@H](C)CC[C@@H](C2=C)[C@@]35O4)O[C@@H]2O[C@@]3(C)CC[C@H]4[C@H](C)CC[C@@H]1[C@@]24O3 (some centres undefined) ?
Response: > 50 µM (inactive)

###

Listing of recorded GI50 by entry.
System: CAKI-1
PROTOCOL: NCI tumour cell line growth inhibition, 48 h
Calls of active or inactive are those of the source. No stated cut-off is given here; in the data, active = GI50 up to about 1.1 µM and inactive = higher.

Request: Which GI50 value is on record for COc1cc2cnc3c4cc(O)ccc4ccc3c2cc1OC ?
Response: > 100 µM (inactive)

Request: Which GI50 value is on record for Cc1cc(OCc2nc(N)nc(N)c2-c2ccc(Cl)c(Cl)c2)ccc1[N+](=O)[O-] ?
Response: 0.558 µM (active)

Request: Which GI50 value is on record for Cc1ccc(NC(=O)C(=O)C2C(=O)N(c3ccccc3)N=C2N)cc1C (stereo not given) ?
Response: > 100 µM (inactive)

Further cases:
Request: Which GI50 value is on record for CCOC(=O)Cn1c(=O)c2nc(SC)sc2n(-c2ccc(C)cc2)c1=S ?
Response: > 100 µM (inactive)

Request: Which GI50 value is on record for COc1ccc(-n2c(N)c(C#N)c(C#N)c2-c2ccco2)cc1 ?
Response: > 100 µM (inactive)

###

Tested on: 786-0
PROTOCOL: NCI tumour cell line growth inhibition, 48 h
Calls of active or inactive are those of the source. Cut-off read from the data, not from the text of the source: active = GI50 up to about 1.1 µM and inactive = higher.
Please state which outcome applies, choosing from Yes = active, No = inactive

Request: What did this assay record as the result for O=c1c(C(c2cnc3ccccc3c2)c2c(O)oc3ccccc3c2=O)c(O)oc2ccccc12 ?
Response: No

Further cases:
Request: What did this assay record as the result for CSc1nc(Cl)c2c(n1)Sc1nc3cc4c(cc3n1C2O)OCCO4 (stereo not drawn) ?
Response: Yes

###

Test system: RPMI-8226
PROTOCOL: NCI tumour cell line growth inhibition, 48 h
Activity calls are given as the source filed them. Rule as the data show it: active = GI50 up to about 1.1 µM and inactive = higher.
Please state which outcome applies, choosing from t = active, f = inactive

The following compounds have reported results that may help.
Request: What did this assay record as the result for Cc1nc(O)nc(NNCc2ccc(Cl)cc2)c1C(=O)Nc1ccc(Cl)cc1 ?
Response: f

Request: What did this assay record as the result for N#CC12CC3(CCC1CCC1(C2)OCCO1)OCCO3 (stereo not given) ?
Response: f

Request: What did this assay record as the result for C/C=C/C1OC(O)(C(C)C(O)[C@H](C)C2OC(=O)/C(OC)=C/C(C)=C/[C@@H](C)[C@@H](O)[C@@H](C)C(O)C(C)C/C(C)=C/C=C/C2OC)C[C@@H](OC2CC(O)C(OC(N)=O)C(C)O2)C1C (stereo not given in full) ?
Response: t

Request: What did this assay record as the result for CC(C)C1CCC(=O)CC1CCCCC1CC(=O)CC1O[Si](C)(C)C(C)(C)C (stereo not given) ?
Response: f

Request: What did this assay record as the result for COc1ccc(C(O)(c2ccccc2)c2nccc3ccccc23)cc1 (stereo not given) ?
Response: f

Request: What did this assay record as the result for O=c1c2ncn(CCCl)c2n(-c2ccccc2)c(=S)n1-c1ccccc1 ?
Response: f

Request: What did this assay record as the result for CCSc1nc2n(c(=S)n1)CCN2C ?
Response: f

Request: What did this assay record as the result for CCC1C(=O)OCc2c1cc1n(c2=O)Cc2cc3ccccc3nc2-1 (stereo not given) ?
Response: f

Further cases:
Request: What did this assay record as the result for O=C(c1ccccc1)c1c(C(=O)c2ccccc2)c(-c2ccccc2)c2c(-c3ccccc3)sc(-c3ccccc3)c2c1-c1ccccc1 ?
Response: f

Request: What did this assay record as the result for O=C1c2ccccc2C(=O)N1CC(CN1C(=O)c2ccccc2C1=O)(C(=O)OCc1ccccc1)C(=O)OCc1ccccc1 ?
Response: f

###

Listing of recorded GI50 by entry.
Tested on: OVCAR-3
PROTOCOL: NCI tumour cell line growth inhibition, 48 h
The source made the active and inactive calls. Cut-off read from the data, not from the text of the source: active = GI50 up to about 1.1 µM and inactive = higher.

A selection of reference data follows.
Request: Which GI50 value is on record for OCC1CCC(n2cnc3c(O)ncnc32)O1 (stereo not drawn) ?
Response: > 100 µM (inactive)

Request: Which GI50 value is on record for Cc1c(C(=O)O)n2c(C)nnc2c2ccccc12 ?
Response: > 100 µM (inactive)

Further cases:
Request: Which GI50 value is on record for C=CCC(CNC(=O)OCc1ccccc1)O[Si](C)(C)C(C)(C)C (stereo not drawn) ?
Response: 31.6 µM (inactive)

###

Test system: SW-620
PROTOCOL: NCI tumour cell line growth inhibition, 48 h
Activity calls are given as the source filed them. Cut-off read from the data, not from the text of the source: active = GI50 up to about 1.1 µM and inactive = higher.
PARAMETER: GI50

Request: Which GI50 value is on record for Cn1c(-c2ccccc2)cc(-c2ccc3c(c2)OCO3)c1-c1ccsc1 ?
Response: > 100 µM (inactive)

Request: Which GI50 value is on record for Cc1ccsc1/C(S)=N\c1ccc(Cl)c(/C=N/OC(C)(C)C)c1 ?
Response: 35.3 µM (inactive)

Request: Which GI50 value is on record for CC(C)C1CCC(=O)CC1CCCCC1CC(=O)CC1O[Si](C)(C)C(C)(C)C (stereo unspecified) ?
Response: 4.91 µM (inactive)

Request: Which GI50 value is on record for CSc1nc(Cl)c(Br)c(Nc2cnc(O)nc2O)n1 ?
Response: 27.1 µM (inactive)

Request: Which GI50 value is on record for COc1ccc(-n2c(N)c(C#N)c(C#N)c2-c2ccco2)cc1 ?
Response: > 100 µM (inactive)

Further cases:
Request: Which GI50 value is on record for Nc1c(Cl)cc(-c2nc3ccccc3s2)cc1Cl ?
Response: > 100 µM (inactive)

Request: Which GI50 value is on record for O=C(CC(C(=O)c1ccco1)c1ccsc1)c1ccco1 (stereo unspecified) ?
Response: > 100 µM (inactive)

Request: Which GI50 value is on record for OCc1ccc(-c2ccc(-c3ccc(CO)s3)o2)s1 ?
Response: 0.224 µM (active)

Request: Which GI50 value is on record for O=C1CCCC2=C1CC1=C(CCCC1=O)N2c1ccc(-c2ccccc2)cc1 ?
Response: > 100 µM (inactive)

Request: Which GI50 value is on record for O=C(CCc1nnc2s/c(=C\c3ccccc3)c(=O)n12)Nc1cc(Cl)ccc1Cl ?
Response: 4.15 µM (inactive)

Request: Which GI50 value is on record for C[C@H](CN1CC(=O)NC(=O)C1)N1CC(=O)NC(=O)C1 ?
Response: > 47.3 µM (inactive)

###

System: NCI-H522
PROTOCOL: NCI tumour cell line growth inhibition, 48 h
Active and inactive are the calls of the source. Rule as the data show it: active = GI50 up to about 1.1 µM and inactive = higher.
Please state which outcome applies, choosing from active, inactive

Request: What did this assay record as the result for COC(=O)C1[C@H](c2cc(OC)c(OC)c(OC)c2)OC(=O)C1(C(=O)OC)C(=O)c1ccc2c(c1)OCO2 (some centres undefined) ?
Response: inactive

Request: What did this assay record as the result for C=C1C(OC2O[C@@H]3O[C@@]4(C)CC[C@H]5[C@H](C)CC[C@@H](C2=C)[C@@]35O4)O[C@@H]2O[C@@]3(C)CC[C@H]4[C@H](C)CC[C@@H]1[C@@]24O3 (some centres undefined) ?
Response: inactive

Request: What did this assay record as the result for Clc1cccc(-c2nc3cccc4c3n2Cc2ncccc2-4)c1 ?
Response: inactive

Request: What did this assay record as the result for N=C1N(/N=C/c2ccccn2)/C(=N\c2ccccc2)C(=S)N1c1ccccc1 ?
Response: inactive

Request: What did this assay record as the result for COC(=O)[C@@H]1C(=O)O[C@@H](c2ccc3c(c2)OCO3)[C@@H]1C(=O)OC.COC(=O)[C@H]1C(=O)O[C@@H](c2ccc3c(c2)OCO3)[C@@H]1C(=O)OC ?
Response: inactive

Request: What did this assay record as the result for N=C(N)NS(=O)(=O)c1ccc(NC(=O)c2cccc3c(N)c4ccccc4nc23)cc1 ?
Response: inactive

Request: What did this assay record as the result for O=c1[nH]c(=O)n(COCCOCc2ccccc2)cc1Nc1ccccc1 ?
Response: inactive

Request: What did this assay record as the result for CCNC(=O)c1cc(/C=C/c2ccc([N+](=O)[O-])o2)nc2ccccc12 ?
Response: inactive

Request: What did this assay record as the result for COc1ccc(C2SCC(=O)N2NC(=O)C(C)Oc2ccccc2Cl)cc1 (centres undefined) ?
Response: inactive

Request: What did this assay record as the result for C=CCC(CNC(=O)OCc1ccccc1)O[Si](C)(C)C(C)(C)C (centres undefined) ?
Response: inactive

Further cases:
Request: What did this assay record as the result for N#Cc1c(NC(=S)Nc2ccc(Cl)cc2)sc2c1CCCC2 ?
Response: inactive

Request: What did this assay record as the result for ClCc1c(-c2ccccc2)nn(-c2ccccc2)c1CCl ?
Response: active

Request: What did this assay record as the result for COC(=O)NCCc1n[nH]c2c1C(=O)C=C(N1CCOCC1)C2=O ?
Response: inactive

Request: What did this assay record as the result for NC(Cc1ccc(OCc2ccccc2)cn1)C(=O)O (centres undefined) ?
Response: inactive

Request: What did this assay record as the result for COC(=O)C(Cc1c[nH]c2ccccc12)NP(=O)(O)OCC1OC(n2cc(I)c(=O)[nH]c2=O)CC1O (centres undefined) ?
Response: inactive

Request: What did this assay record as the result for CC1(C)CC(O)C2=C(O1)C(=O)c1ncccc1C2=O (centres undefined) ?
Response: inactive

Request: What did this assay record as the result for CCOc1ccccc1Nc1ccc(N)cc1S(=O)(=O)O ?
Response: inactive

Request: What did this assay record as the result for COc1cc(S(=O)(=O)Nc2ccc(-c3csc(N4C(=O)C(Cl)C4c4cccs4)n3)cc2)ccc1Cl (centres undefined) ?
Response: inactive

Request: What did this assay record as the result for CNC(=S)N/N=C1\CC(c2ccccc2)Oc2ccccc21 (centres undefined) ?
Response: inactive
